Test: NCI Yeast Anticancer Drug Screen. Data for the rad14 strain (AID 159);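 note: 0% = growth of vehicle-treated control cultures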
Conditions: S. cerevisiae rad14 strain growth inhibition; at 3.7 µM; stronger effect = higher value
This is part of a sample that, as a whole, favours compounds with a hit. Of some 79,000 tested, about 15% had one in any assay.

| molecule | measure unit | growth inhibition |
| --- | --- | --- |
| CC(C)[N+]([O-])(CCCNc1c2ccccc2nc2cccc([N+](=O)[O-])c12)C(C)C | % | 93 |
| CCN(CC)CCN1C(=O)c2cccc3cc(OC)cc(c23)C1=O | % | 1 |
| O=C(O)c1ccccc1NC(=S)c1ccccc1 | % | 4 |
| Fc1ccc(NC(=S)SCc2ccc(Cl)c(Cl)c2)cc1F | % | 5 |
| Cn1c(N)nc(-c2ccc(Cl)cc2)c1SSc1c(-c2ccc(Cl)cc2)nc(N)n1C | % | -1 |
| CC(=O)ON1C(=O)c2cccc3cccc(c23)C1=O | % | 95 |
| CC(C)=CC(=O)O[C@@H]1CC(C)(C)CC2C3=CCC4[C@]56CC[C@](O)(OC5)C(C)(C)C6CC[C@@]4(C)C3(C)CC[C@]21C(=O)O (stereo not given in full) | % | 2 |
| Oc1c(Br)cc(Br)cc1C1CCCCC1 | % | -4 |
| O=CC=C(c1ccccc1)c1ccccc1 | % | -2 |
| CO[C@H]1C[C@](C)(O)Cc2cc3c(c(O)c21)C(=O)c1c(O)cc2c(c1C3=O)O[C@@H]1O[C@@]2(C)[C@H](O)[C@@H](N(C)C)[C@@H]1O | % | -44 |

----------
// reported growth inhibition per item
Experiment: NCI Yeast Anticancer Drug Screen. Data for the bub3 strain (AID 167)
Settings: S. cerevisiae bub3 mutant strain, at 100.0 µM, stronger effect = higher value
The panel holds about 79,000 compounds, 15% with a hit somewhere; the sample as a whole holds those more often.

| chemical string | growth inhibition (%) |
| --- | --- |
| COC(=O)CSSCc1ccc([N+](=O)[O-])cc1 | 97 |
| O=C(c1cc(Br)ccc1O)c1cc(Br)ccc1O | 99 |
| O=C1C=CC(=Nc2ccc3c(c2)Cc2cc(NC(=O)C(F)(F)F)ccc2-3)O1 | 96 |
| Cc1ccc(S(=O)(=O)NNC(=S)Nc2cccc3ccccc23)cc1 | 29 |
| O=C1c2ccccc2-c2n[nH]c3cccc1c23 | 53 |
| CSC1=NNC(SC)=NN1 | 99 |

----------
Test: NCI Yeast Anticancer Drug Screen. Data for the rad52 strain (AID 147);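 note: 0% = growth of vehicle-treated control cultures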
Conditions: S. cerevisiae rad52 mutant growth inhibition; at 11.0 µM; stronger effect = higher value
About 79,000 compounds went through this panel and 15% of them were active in at least one assay; those are over-represented in the sample as a whole.
// reported growth inhibition per item

| molecule | growth inhibition [%] |
| --- | --- |
| CC(=O)OCCOCNC(=S)N/N=C(\C)c1cnccn1 | -19 |
| C/C(=N\NC(=S)SCc1ccccc1)c1ccccn1 | 60 |
| C[S+](C)C1(c2ccccc2)C(=O)c2ccccc2C1=O | 20 |
| COc1ccc(OC)c2cc3ccccc3cc12 | 6 |
| Nc1ccc2c(c1)C(=O)c1cccc(N)c1C2=O | 89 |
| CCCc1cc(C(=O)OCC)cc(CCC)c1O | -9 |
| O=[N+]([O-])c1cccc2nccc(NCCCO)c12 | 11 |
| COc1cc(C2SCC(=O)N2c2nnc(C(F)(F)F)s2)cc(OC)c1OC (stereo not drawn) | -2 |
| Cc1ccc(C2C(Cl)C(=O)N2n2cnc3ccccc3c2=O)cc1 (stereo not drawn) | 8 |
| COc1cc(C(=O)/C=C/c2ccccc2O)ccc1O | 98 |
| CN(C)c1nc2sc3c(c2c(=O)o1)CCCC3 | 6 |
| CC1=C(SCCO)C(=O)c2ccccc2C1=O | 13 |
| CC(=O)SCCC[Si](C)(C)CCCSC(C)=O | 7 |

----------
Assay: NCI Yeast Anticancer Drug Screen. Data for the rad18 strain (AID 177)
Settings: S. cerevisiae rad18 mutant growth inhibition; at 3.7 µM; stronger effect = higher value
The panel holds about 79,000 compounds, 15% with a hit somewhere; the sample as a whole holds those more often.
// reported growth inhibition per item

| compound | growth inhibition (%) |
| --- | --- |
| CC1(C)C(=O)OC(n2cc(F)c(=O)[nH]c2=O)C1=O (stereo unspecified) | 8 |
| CC(C)(C)c1nc2c(o1)C(=O)c1ccccc1C2=O | -14 |
| O=C1C2CC[C@@H]3C(=O)C(Cl)(Cl)[C@@H]3CCC2C1(Cl)Cl (stereo partly specified) | 85 |
| CC1(C)[C@@H]2CC[C@]1(C)[C@H](OC(=O)CSC#N)C2 | 14 |
| C/C(=N\NC(=S)SCc1ccccc1)c1ccccn1 | 53 |
| Nc1ncncc1C(C1=C(O)COC1=O)C1=C(O)COC1=O | 0 |
| C/C(=N/NC(=S)N1CCCCCC1)c1cccc(/C(C)=N\NC(=S)N2CCCCCC2)n1 | 26 |
| S=C(S)NN1CCOCC1 | 67 |
| CC(=O)OC1CCC2(C)C(=CCC3C4CCC5(OC6CC(C)CN(C(C)=O)C6C5C)C(C)=C4C(=O)C32)C1 (stereo unspecified) | 15 |
| CCCCOC(=O)N[C@H]1CCc2cc(OC)c(OC)c(OC)c2-c2ccc(SC)c(=O)cc21 | 0 |
| O=C(/C=C/c1cccc(Br)c1)c1cccs1 | 26 |
| CCCCCCCCCCCCCCC(C(=O)[O-])[n+]1ccccc1 (stereo unspecified) | 8 |
| O=CNc1ccc2c(c1)C(=O)c1ccccc1-2 | 3 |
| CCCCN(CCCC)CCSc1ccc(Cl)cc1 | -11 |
| CN(C)Cc1cc(N=Nc2ccc(Cl)cc2)cc(CN(C)C)c1O | 8 |
| CCCCCCCCCCCCCCCCCCOCC(O)COP(=O)(O)OCC1OC(n2cc(F)c(=O)[nH]c2=O)CC1O (stereo unspecified) | -2 |

----------
Assay: NCI Yeast Anticancer Drug Screen. Data for the CLN2oe strain (AID 163);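 note: 0% = growth of vehicle-only control cultures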
Settings: S. cerevisiae CLN2oe strain, at 3.7 µM, stronger effect = higher value
Compounds without any hit were thinned out: in the full panel of roughly 79,000, 15% have a hit.
recorded metric: growth inhibition (%)

| compound | recorded metric | measure unit | reported value |
| --- | --- | --- | --- |
| Cc1c(C(Cc2ccccc2N(C)C(=O)/C=C\C(=O)O)c2c[nH]c3ccccc23)c2ccccc2n1C (stereo unspecified) | growth inhibition | % | -2 |
| CC(=O)SCCC[Si](C)(C)CCCSC(C)=O | growth inhibition | % | -6 |
| CCCCCCc1cc(C(=O)OC/C(C)=N/NC(N)=O)c2ccccc2n1 | growth inhibition | % | -11 |
| OC(COc1cccc2ccccc12)CN1CCOCC1 (stereo unspecified) | growth inhibition | % | 48 |
| Cc1[nH]c2ccccc2c1C(c1ccc(N)cc1)c1c(C)[nH]c2ccccc12 | growth inhibition | % | -3 |
| O=C(NCCCNCCCNC(=O)c1cc(-c2ccccc2)nc2ccccc12)c1cc(-c2ccccc2)nc2ccccc12 | growth inhibition | % | -1 |
| NNc1c(F)c(F)cc(F)c1F | growth inhibition | % | -4 |
| O=C(N=Nc1cc(Cl)ccc1Cl)NNc1cc(Cl)ccc1Cl | growth inhibition | % | -7 |
| COc1cc(CC2CC(c3ccc4c(c3)OCO4)OC2=O)cc(OC)c1OC (stereo unspecified) | growth inhibition | % | 1 |
| CC(C)OC(=O)Oc1ccccc1OC(=O)OC(C)C | growth inhibition | % | 4 |
| Cc1ccc(-n2cc(-c3ccc(Cl)cc3)c(C#N)c2N)cc1 | growth inhibition | % | -13 |

----------
Assay: NCI Yeast Anticancer Drug Screen. Data for the rad18 strain (AID 177)
Details: S. cerevisiae rad18 mutant growth inhibition; at 3.7 µM; stronger effect = higher value
This is part of a sample that, as a whole, favours compounds with a hit. Of some 79,000 tested, about 15% had one in any assay.

| molecule | measure unit | growth inhibition |
| --- | --- | --- |
| c1ccc(-c2ccnc3c2ccc2c(-c4ccccc4)ccnc23)cc1 | % | 12 |
| COC(=O)c1cc(-c2ccc(C)cc2)[nH]c(=O)c1C#N | % | -11 |
| CC(=O)N/N=C/C(C)(C)C(C)(C)/C=N/NC(C)=O | % | 1 |
| COC1=CC(=O)C2C(C1=O)C(c1ccc(Cl)cc1)[C@@H]2C (stereo partly specified) | % | 29 |
| Cc1nc(-c2ccccc2)c(-c2ccccc2)s1 | % | 8 |
| CN1CCc2ccccc2C1Cc1ccccc1NC(=O)c1sc2ccccc2c1Cl (stereo unspecified) | % | -23 |
| CC(C)/C(Cl)=N\OC(=O)Nc1ccc(F)cc1 | % | 0 |
| CCC/C(Cl)=N\OC(=O)Nc1ccc(Br)cc1 | % | 77 |
| Clc1ccc(SC(/C=C/NNC2=NC(c3ccccc3)C(c3ccccc3)=NN2)c2ccccc2)cc1 (stereo unspecified) | % | 9 |
| Cc1c(Cl)ccc2c1S(=O)(=O)c1cccc(Cl)c1-2 | % | 2 |
| O=C1c2ccccc2-c2n[nH]c3cccc1c23 | % | -32 |

Cited source for all entries: PubChem BioAssay (NCI)
